Provenance of the data: ChEMBL document CHEMBL5143711

Tested on: Staphylococcus aureus
assay-procedure: Antibacterial activity against Staphylococcus aureus ATCC 25923 incubated for 16 to 24 hrs by broth microdilution based spectrophotometric analysis
Format: functional, organism-based
pIC50: −log10 of the molar value.
pIC50 for assorted compounds
quantity: pIC50

mol-smiles | system-name | result
CC1=C[C@H]2[C@@H]([C@@H](C)CC[C@@H]2O)[C@]2(C)C(=O)C3=C(O)[C@@]4(C[C@@H](C)C(C(=O)O)=C[C@@]4(C)/C=C(\C)CC/C=C(\C)[C@H]12)OC3=O | Staphylococcus aureus | < 4.52
CCCCCCCCCCCC(=O)O[C@H]1CC[C@H](C)[C@@H]2[C@@H]1C=C(C)[C@H]1/C(C)=C/CC/C(C)=C/[C@]3(C)C=C(C)[C@H](C)C[C@]34OC(=O)C(=C4O)C(=O)[C@@]21C | Staphylococcus aureus | < 4.52
CC(=O)O[C@H]1CC[C@H](C)[C@@H]2[C@@H]1C=C(C)[C@H]1/C(C)=C/CC/C(C)=C/[C@@H]3C=C(C(=O)O)[C@H](C)C[C@]34OC(=O)C(=C4O)C(=O)[C@@]21C | Staphylococcus aureus | < 4.52
COc1cc(C)c(C(=O)O[C@H]2[C@@H](O)[C@@H](O)[C@H](O[C@H]3CC[C@H](C)[C@@H]4[C@@H]3C=C(C)[C@H]3/C(C)=C/CC/C(C)=C/[C@]5(C)C=C(C(=O)O)[C@H](C)C[C@]56OC(=O)C(=C6O)C(=O)[C@@]43C)O[C@@H]2C)c(O)c1 | Staphylococcus aureus | < 4.52
COc1cccc(OC)c1C(=O)N[C@@H]1C(=O)N2[C@@H]1SC(C)(C)[C@@H]2C(=O)O | Staphylococcus aureus | > 5.00
